# assay.name: Biodistribution of 99mTc labelled complexes in rats (Tc brain bioassay, Example 64, Table I)
# Type: in vivo, Female Sprague-Dawley rats
# assay.context: rat, i.v. tail vein, 30 min post injection
Heart % dose under 0.3 % dose gets MET, anything at or over 0.3 % dose gets NOT MET.

> print(dat)
                                   compound  class.name
1  CC[SH]1C(C)(C)C(=O)[N]2CC[N]3c4ccccc4[S][Tc]231=[O] (stereo not shown)         MET
2  CC1(C)C(=O)[N]2CC[N]3c4ccccc4[S][Tc]23(=[O])[SH]1CCC#N (stereo not shown)     NOT MET
3  CC1(C)C(=O)[N]2CC[N]3c4ccccc4[S][Tc]23(=[O])[SH]1CCO (stereo not shown)         MET
4  C[SH]1C(C)(C)C(=O)[N]2CC[N]3c4ccccc4[S][Tc]231=[O] (stereo not shown)         MET
5  CC1(C)C(=O)[N]2CC[N]3c4ccccc4[S][Tc]23(=[O])[SH]1CCCl (stereo not shown)         MET
6  CCCC[SH]1C(C)(C)C(=O)[N]2CC[N]3c4ccccc4[S][Tc]231=[O] (stereo not shown)         MET
7  C=CC[SH]1C(C)(C)C(=O)[N]2CC[N]3c4ccccc4[S][Tc]231=[O] (stereo not shown) [Example T721]     NOT MET

* * *

# assay.name: Biodistribution of 99mTc labelled complexes in rats (Tc brain bioassay, Example 64, Table I)
# Type: in vivo, Female Sprague-Dawley rats
# assay.context: rat, i.v. tail vein, 30 min post injection
# Heart % dose values compiled below
outcome.measure: Heart % dose (% dose)

> print(dat)
                                   molecule  outcome.measure  numeric.result
1  C[SH]1c2ccccc2[N]2CC[N]3C(=O)C(C)(C)[S][Tc]321=[O] (centres unmarked)     Heart % dose            0.53
2  CC1(C)C(=O)[N]2CC[N]3c4ccccc4[S][Tc]23(=[O])[SH]1CCCN (centres unmarked)     Heart % dose            0.74
3  COC(=O)C[SH]1C(C)(C)C(=O)[N]2CC[N]3c4ccccc4[S][Tc]231=[O] (centres unmarked)     Heart % dose            0.18
4  C#CC[SH]1C(C)(C)C(=O)[N]2CC[N]3c4ccccc4[S][Tc]231=[O] (centres unmarked)     Heart % dose            0.48
5  C=CC[SH]1C(C)(C)C(=O)[N]2CC[N]3c4ccccc4[S][Tc]231=[O] (centres unmarked) [Example T719]     Heart % dose            0.40
6  CCC[SH]1c2ccccc2[N]2CC[N]3C(=O)C(C)(C)[S][Tc]321=[O] (centres unmarked)     Heart % dose            0.48
7  CCC[SH]1C(C)(C)C(=O)[N]2CC[N]3c4ccccc4[S][Tc]231=[O] (centres unmarked)     Heart % dose            0.19
8  C[SH]1c2ccccc2[N]2CC(=O)[N]3CC(C)(C)[S][Tc]321=[O] (centres unmarked)     Heart % dose            0.28

* * *

Reported Heart:blood values follow for various molecules
# assay.name: Biodistribution of 99mTc labelled complexes in rats (Tc brain bioassay, Example 64, Table I)
# Format: in vivo, Female Sprague-Dawley rats
# assay.context: rat, i.v. tail vein, 30 min post injection
# Procedure: Distribution of the ^99m Tc labelled compounds was evaluated in rats. […] The animals were sacrificed at 5 and 30 minutes post injection and selected organs were removed; the tails were discarded to avoid interference from the injection site. The radioactivity in each organ was measured at a standard geometry with a […] sodium iodide scintillation counter adjusted for the 140 KeV emission of ^99m Tc. […]
outcome.measure: Heart:blood

> print(dat)
                                   molecule  outcome.measure  numeric.result
1  C[SH]1c2ccccc2[N]2CC(=O)[N]3CC(C)(C)[S][Tc]321=[O] (centres unmarked)      Heart:blood            0.36
2  CC1(C)C(=O)[N]2CC[N]3c4ccccc4[S][Tc]23(=[O])[SH]1CCCl (centres unmarked)      Heart:blood            1.53
3  CC1(C)C(=O)[N]2CC[N]3c4ccccc4[S][Tc]23(=[O])[SH]1CCO (centres unmarked)      Heart:blood            2.08
4  CC1(C)C(=O)[N]2CC[N]3c4ccccc4[S][Tc]23(=[O])[SH]1CCCN (centres unmarked)      Heart:blood            2.11
5  CCC[SH]1C(C)(C)C(=O)[N]2CC[N]3c4ccccc4[S][Tc]231=[O] (centres unmarked)      Heart:blood            1.84
6  CCCC[SH]1C(C)(C)C(=O)[N]2CC[N]3c4ccccc4[S][Tc]231=[O] (centres unmarked)      Heart:blood            1.79
7  C[SH]1c2ccccc2[N]2CC[N]3C(=O)C(C)(C)[S][Tc]321=[O] (centres unmarked)      Heart:blood            0.74
8  CCC[SH]1c2ccccc2[N]2CC[N]3C(=O)C(C)(C)[S][Tc]321=[O] (centres unmarked)      Heart:blood            1.00

* * *

# assay.name: Biodistribution of 99mTc labelled complexes in rats (Tc brain bioassay, Example 64, Table I)
# Type: in vivo, Female Sprague-Dawley rats
# assay.context: rat, i.v. tail vein, 30 min post injection
outcome.measure: Heart:blood

> print(dat)
                                   compound  numeric.result
1  C#CC[SH]1C(C)(C)C(=O)[N]2CC[N]3c4ccccc4[S][Tc]231=[O] (centres unmarked)            0.52
2  CC1(C)C(=O)[N]2CC[N]3c4ccccc4[S][Tc]23(=[O])[SH]1CCC#N (centres unmarked)            0.42
3  CC[SH]1C(C)(C)C(=O)[N]2CC[N]3c4ccccc4[S][Tc]231=[O] (centres unmarked)            1.40
4  C[SH]1C(C)(C)C(=O)[N]2CC[N]3c4ccccc4[S][Tc]231=[O] (centres unmarked)            1.51
5  COC(=O)C[SH]1C(C)(C)C(=O)[N]2CC[N]3c4ccccc4[S][Tc]231=[O] (centres unmarked)            0.42

* * *

# assay.name: Biodistribution of 99mTc labelled complexes in rats (Tc brain bioassay, Example 64, Table I)
# Format: in vivo, Female Sprague-Dawley rats
# assay.context: rat, i.v. tail vein, 5 min post injection
# Heart % dose annotations
outcome.measure: Heart % dose (% dose)

> print(dat)
                                    compound  outcome.measure  unit.descriptor  numeric.result
 1  C[SH]1C(C)(C)C(=O)[N]2CC[N]3c4ccccc4[S][Tc]231=[O] (stereo not drawn)     Heart % dose           % dose            0.88
 2  C[SH]1c2ccccc2[N]2CC[N]3C(=O)C(C)(C)[S][Tc]321=[O] (stereo not drawn)     Heart % dose           % dose            0.61
 3  CCCC[SH]1C(C)(C)C(=O)[N]2CC[N]3c4ccccc4[S][Tc]231=[O] (stereo not drawn)     Heart % dose           % dose            0.82
 4  C#CC[SH]1C(C)(C)C(=O)[N]2CC[N]3c4ccccc4[S][Tc]231=[O] (stereo not drawn)     Heart % dose           % dose            0.74
 5  C=CC[SH]1C(C)(C)C(=O)[N]2CC[N]3c4ccccc4[S][Tc]231=[O] (stereo not drawn) [Example T719]     Heart % dose           % dose            0.78
 6  CCC[SH]1c2ccccc2[N]2CC[N]3C(=O)C(C)(C)[S][Tc]321=[O] (stereo not drawn)     Heart % dose           % dose            0.98
 7  CC1(C)C(=O)[N]2CC[N]3c4ccccc4[S][Tc]23(=[O])[SH]1CCO (stereo not drawn)     Heart % dose           % dose            0.73
 8  COC(=O)C[SH]1C(C)(C)C(=O)[N]2CC[N]3c4ccccc4[S][Tc]231=[O] (stereo not drawn)     Heart % dose           % dose            0.45
 9  CC[SH]1C(C)(C)C(=O)[N]2CC[N]3c4ccccc4[S][Tc]231=[O] (stereo not drawn)     Heart % dose           % dose            0.84
10  CC1(C)C(=O)[N]2CC[N]3c4ccccc4[S][Tc]23(=[O])[SH]1CCC#N (stereo not drawn)     Heart % dose           % dose            1.01
11  CCC[SH]1C(C)(C)C(=O)[N]2CC[N]3c4ccccc4[S][Tc]231=[O] (stereo not drawn)     Heart % dose           % dose            0.59
12  C=CC[SH]1C(C)(C)C(=O)[N]2CC[N]3c4ccccc4[S][Tc]231=[O] (stereo not drawn) [Example T721]     Heart % dose           % dose            0.75
13  C[SH]1c2ccccc2[N]2CC(=O)[N]3CC(C)(C)[S][Tc]321=[O] (stereo not drawn)     Heart % dose           % dose            0.70
14  CC1(C)C(=O)[N]2CC[N]3c4ccccc4[S][Tc]23(=[O])[SH]1CCCN (stereo not drawn)     Heart % dose           % dose            1.68
15  CC1(C)C(=O)[N]2CC[N]3c4ccccc4[S][Tc]23(=[O])[SH]1CCCl (stereo not drawn)     Heart % dose           % dose            0.71
